Data provenance is the supplement of paper PMC10567573.

Recorded measurements of protein stability index, one per entry
B1: UFD1L (parent)
chain: EAGGRFVAFSGEGQSLRKKGRKP

Variants of: B1
Assay: protein stability index of a GFP-peptide fusion (GPS, HEK-293T) (PSI 1-6); higher = more stable;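 note: lentivirally expressed fusions sorted by FACS into six bins by GFP to DsRed ratio, PSI derived from sequencing read proportions per bin multiplied by bin number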
Settings: c terminus: native
Hey, just send me the number, nothing else.

Here is how some variants turned out for protein stability index.
mutation_spec=P23W quantity_measured="protein stability index" numeric_readout=5.5
mutation_spec=V7F quantity_measured="protein stability index" numeric_readout=1.9
mutation_spec=R17C quantity_measured="protein stability index" numeric_readout=1.48
mutation_spec=G3N quantity_measured="protein stability index" numeric_readout=1.63
mutation_spec=S15R quantity_measured="protein stability index" numeric_readout=2.45

Identify protein stability index associated with the variant "F6G"
2.2
